test_system: T1, human glucagon receptor (human, UniProt P47871 26-477)
T1 construct: whole, on cells; Used as crude membranes of stably transfected HEK293 cells; also called hGcgR; hGLcgR
T1 sequence (P47871 26-477): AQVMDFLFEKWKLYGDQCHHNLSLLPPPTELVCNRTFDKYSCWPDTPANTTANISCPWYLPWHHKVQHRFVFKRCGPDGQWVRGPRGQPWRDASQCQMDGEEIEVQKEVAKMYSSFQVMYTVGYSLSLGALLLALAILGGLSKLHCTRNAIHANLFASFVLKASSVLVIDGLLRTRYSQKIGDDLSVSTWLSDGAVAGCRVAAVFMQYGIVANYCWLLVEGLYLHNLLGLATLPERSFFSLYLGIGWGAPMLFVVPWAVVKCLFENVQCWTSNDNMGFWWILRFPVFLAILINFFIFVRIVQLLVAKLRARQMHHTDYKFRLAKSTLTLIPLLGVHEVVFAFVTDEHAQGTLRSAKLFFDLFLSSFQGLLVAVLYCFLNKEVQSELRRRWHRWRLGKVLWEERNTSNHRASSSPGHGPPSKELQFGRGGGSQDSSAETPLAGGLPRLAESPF
protocol_text: SPA, [125I]-Gcg displacement, hGcgR membranes
Numbered stars: 1 amine (or outer) side, 2 acyl side, 3 side chain; on linkers, the order of the positions; unused ones are H or OH. Square brackets hold non-standard residues; d marks the D form. Side chains are listed from the residue outwards. * marks the point of attachment. C20 diacid = O=C(O)CCCCCCCCCCCCCCCCCCC(=O)*; γGlu = O=C(O)[C@H](CCC(=O)[*:2])N[*:1]; Desaminohistidyl = O=C(CCc1c[nH]cn1)*; AEEA = NCCOCCOCC(=O)O; Aib = CC(C)(N)C(=O)O
attribute_measured: Ki

>>> assay_value("YXEGTFTSDYXILLDKKAQXAFIEYLIEGGPSSGAPPPS (Aib2; αMeS11; K17((2-[2-(2-Amino-ethoxy)-ethoxy]-acetyl)2-(γ-Glu)-CO-(CH2)18-CO2H); Aib20; C-terminal NH2) [Example 68]")
"99.2 nM"
>>> assay_value("XXEGTFTSDYSILLDKKAQXAFIEYLIEGGPSSGAPPPS (D-Tyr1; Aib2; K17((2-[2-(2-Amino-ethoxy)-ethoxy]-acetyl)2-(γ-Glu)-CO-(CH2)18-CO2H); Aib20; C-terminal NH2) [Example 78]")
"215 nM"
>>> assay_value("YXEGTXTSDYSIXLDKKAQXHFIEYLIEGGPSSGAPPPS (Aib2; αMeF6; αMeL13; K17((2-[2-(2-Amino-ethoxy)-ethoxy]-acetyl)2-(γ-Glu)-CO-(CH2)18-CO2H); Aib20; C-terminal NH2) [Example 142]")
"53.1 nM"
>>> assay_value("[Desaminohistidyl][Aib]EGTFTSDYSILLDKK([AEEA-AEEA-γGlu-C20 diacid])AQ[Aib]AFIEYLIEGGPSSGAPPPS-NH2 (also: reversed amide ψ[NHCO] between residues 1 and 2) [Example 105]")
"20.4 nM"
>>> assay_value("YXEGTFTSDYSILLDKKAQXAFIEYLIEGGPSSGAPPPS (Aib2; K17((2-[2-(2-Amino-ethoxy)-ethoxy]-acetyl)2-(γ-Glu)-CO-(CH2)18-CO2H); Aib20; C-terminal NH2) [Example 8]")
"206 nM"
>>> assay_value("HXEGTFTSDYSIXLDKKAQXAFIEYLIEGGPSSGAPPPS (Aib2; αMeL13; K17((2-[2-(2-Amino-ethoxy)-ethoxy]-acetyl)2-(γ-Glu)-CO-(CH2)18-CO2H); Aib20; C-terminal NH2) [Example 53]")
"216 nM"
>>> assay_value("YXEGTXTSDXSIXLDEKAQXEFIXYLIEGGPSSGAPPPS (Aib2; αMeF(2F)6; 4Pal10; αMeL13; K17((2-[2-(2-Amino-ethoxy)-ethoxy]-acetyl)2-CO-(CH2)16-CO2H); Aib20; D-Glu24; C-terminal NH2) [Example 205]")
"438 nM"
>>> assay_value("YXEGTXTSDYSILLDKKAQXAFIEYLIEGGPSSGAPPPS (Aib2; αMeF6; K17((2-[2-(2-Amino-ethoxy)-ethoxy]-acetyl)2-(γ-Glu)-CO-(CH2)18-CO2H); Aib20; C-terminal NH2) [Example 57]")
"26.1 nM"
>>> assay_value("YXEGTXTSDYSIXLDKKAQXAFIEYLIEGGPSSGAPPPS (Aib2; αMeF6; αMeL13; K17((2-[2-(2-Amino-ethoxy)-ethoxy]-acetyl)2-(γ-Glu)2-CO-(CH2)18-CO2H); Aib20; C-terminal NH2) [Example 125]")
"54.4 nM"
>>> assay_value("YXEGTXTSDYSIXLDKKAQHXFIEYLIEGGPSSGAPPPS (Aib2; αMeF6; αMeL13; K17((2-[2-(2-Amino-ethoxy)-ethoxy]-acetyl)2-(γ-Glu)-CO-(CH2)18-CO2H); Aib21; C-terminal NH2) [Example 144]")
"77 nM"
>>> assay_value("YXEGTXTSDYSIXLDKKAQXTFIEYLIEGGPSSGAPPPS (Aib2; αMeF6; αMeL13; K17((2-[2-(2-Amino-ethoxy)-ethoxy]-acetyl)2-(γ-Glu)-CO-(CH2)18-CO2H); Aib20; C-terminal NH2) [Example 139]")
"105 nM"
>>> assay_value("YXEGTXTSDYSIXLDKKAQXXFIEYLIEGGPSSGAPPPS (Aib2; αMeF6; αMeL13; K17((2-[2-(2-Amino-ethoxy)-ethoxy]-acetyl)2-(γ-Glu)-CO-(CH2)18-CO2H); Aib20; Aad21; C-terminal NH2) [Example 137]")
"98.1 nM"
>>> assay_value("YXEGTXTSDYSIXLDEKAQXEFIHYLIEGGPSSGAPPPS (Aib2; αMeF(2F)6; αMeL13; K17((2-[2-(2-Amino-ethoxy)-ethoxy]-acetyl)2-(γ-Glu)-CO-(CH2)18-CO2H); Aib20; C-terminal NH2) [Example 153]")
"43.8 nM"
>>> assay_value("YXEGTXTSDVSIXLDEKAQXEFIXYLIEGGPSSGAPPPS (Aib2; αMeF(2F)6; αMeL13; K17((2-[2-(2-Amino-ethoxy)-ethoxy]-acetyl)2-(γ-Glu)-CO-(CH2)18-CO2H); Aib20; D-Glu24; C-terminal NH2) [Example 191]")
"348 nM"
>>> assay_value("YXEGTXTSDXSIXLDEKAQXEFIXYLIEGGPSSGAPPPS (not printed (the compound name of this Example is missing from the table of Examples 6-287)) [Example 181]")
"413 nM"
>>> assay_value("YXEGTXTSDYSIXLDKKAQXAFIEYLIEAGPSSGAPPPS (Aib2; αMeF6; αMeL13; K17((2-[2-(2-Amino-ethoxy)-ethoxy]-acetyl)2-(γ-Glu)-CO-(CH2)18-CO2H); Aib20; C-terminal NH2) [Example 126]")
"101 nM"
>>> assay_value("YXEGTFTSDYSIXLDKKAQXAFIEYLIEGG (Aib2; αMeL13; K17((2-[2-(2-Amino-ethoxy)-ethoxy]-acetyl)2-(γ-Glu)-CO-(CH2)18-CO2H); Aib20; C-terminal NH2) [Example 62]")
"168 nM"
>>> assay_value("YXEGTFTSDYSIXLDEKAQXAFIEYLIEGGPSSGAPPPS (Aib2; αMeL13; K17((2-[2-(2-Amino-ethoxy)-ethoxy]-acetyl)2-(γ-Glu)-CO-(CH2)18-CO2H); Aib20; C-terminal NH2) [Example 59]")
"292 nM"
>>> assay_value("YXXGTFTSDYSILLDKKAQXAFIEYLIEGGPSSGAPPPS (Aib2; Aad3; K17((2-[2-(2-Amino-ethoxy)-ethoxy]-acetyl)2-(γ-Glu)-CO-(CH2)18-CO2H); Aib20; C-terminal NH2) [Example 89]")
"324 nM"
>>> assay_value("YXEGTFTSDYSILLDKKAQXAFIEYLIXGGPSSGAPPPS (Aib2; K17((2-[2-(2-Amino-ethoxy)-ethoxy]-acetyl)2-(γ-Glu)-CO-(CH2)18-CO2H); Aib20; D-Glu28; C-terminal NH2) [Example 83]")
"320 nM"
>>> assay_value("YXEGTXTSDYSIXLDKKAQXXFIEYLIEGGPSSGAPPPS (Aib2; αMeF6; αMeL13; K17((2-[2-(2-Amino-ethoxy)-ethoxy]-acetyl)2-(γ-Glu)-CO-(CH2)18-CO2H); Aib20; Aib21; C-terminal NH2) [Example 143]")
"65.5 nM"
